meta.source: the supplement of paper PMC12783771

Kindly supply the reported sfGFP reporter fluorescence values for the records listed here.
B1: library; numbered along this chain (parent)
chain: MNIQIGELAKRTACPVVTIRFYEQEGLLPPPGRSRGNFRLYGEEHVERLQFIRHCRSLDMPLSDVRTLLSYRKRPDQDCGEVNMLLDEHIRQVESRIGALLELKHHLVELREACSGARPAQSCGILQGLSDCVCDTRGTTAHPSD

# Variants of: B1
# test protocol: sfGFP reporter fluorescence (15 h) (µM FITC); higher = stronger transcriptional activation
# details: library round: Round 0; ligand: 1 µM Pb
Give bare numbers.

Please supply sfGFP reporter fluorescence for each of the following items, keeping them in order.
1. L62A
2. G128T
3. L126T
4. L27W
5. L49A

Result:
[0.0634, 0.0885, 0.0579, 0.0623, 0.0614]
